For each entry below, report its protein stability index value.
B1: RAD54B (parent)
chain: YVQEKRDGLKRRQQLEEELLRAKI

- Variants of: B1
- TEST_METHOD_NOTES: protein stability index of a GFP-peptide fusion (GPS, HEK-293T) (PSI 1-6); higher = more stable;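 further: lentivirally expressed fusions sorted by FACS into six bins by GFP to DsRed ratio, PSI derived from sequencing read proportions per bin multiplied by bin number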
- REPORTED_CONDITIONS: c terminus: a fixed tail appended
No unit in the answer, please; the number alone is enough.

Ask: What measured protein stability index goes with YVQEKFDGLKRRQQLEEELLRAKI [R6F] ?
Result: 2.14

Ask: Item: YVQEKRDGLVRRQQLEEELLRAKI [K10V]
Result: 2.9

Ask: Item: YVQEKRDGLKRRQTLEEELLRAKI [Q14T]
Result: 1.75

Ask: Item: YVQEKRDGLKRRQQLEEENLRAKI [L19N]
Result: 2.14

Ask: Item: YVQEKRDGLKRRQQLEEELDRAKI [L20D]
Result: 1.97

Ask: Item: YVQEKRDGLCRRQQLEEELLRAKI [K10C]
Result: 1.83

Ask: Item: YVQGKRDGLKRRQQLEEELLRAKI [E4G]
Result: 2.13

Ask: Item: YVQEKRDGLKRPQQLEEELLRAKI [R12P]
Result: 1.96

Ask: Item: YVQFKRDGLKRRQQLEEELLRAKI [E4F]
Result: 1.89

Ask: Item: YVHEKRDGLKRRQQLEEELLRAKI [Q3H]
Result: 1.91

Ask: Item: YVQELRDGLKRRQQLEEELLRAKI [K5L]
Result: 1.96

Ask: Item: YVYEKRDGLKRRQQLEEELLRAKI [Q3Y]
Result: 1.8

Ask: Item: YVQEKRDGLPRRQQLEEELLRAKI [K10P]
Result: 2.55

Ask: Item: PVQEKRDGLKRRQQLEEELLRAKI [Y1P]
Result: 3.89

Ask: Item: YVQEKRDGLKRRQQLGEELLRAKI [E16G]
Result: 2.41

Ask: Item: YVQENRDGLKRRQQLEEELLRAKI [K5N]
Result: 2.19

Ask: Item: YVQEKRDGLKRRQQLEEELLRTKI [A22T]
Result: 1.98

Ask: Item: YVTEKRDGLKRRQQLEEELLRAKI [Q3T]
Result: 2.94

Ask: Item: YVQEKRDGLKRCQQLEEELLRAKI [R12C]
Result: 2.25

Ask: Item: YVQCKRDGLKRRQQLEEELLRAKI [E4C]
Result: 2.57

Ask: Item: YVLEKRDGLKRRQQLEEELLRAKI [Q3L]
Result: 1.75

Ask: Item: YVQEKRDGLKRRQQLEEELLRCKI [A22C]
Result: 1.83

Ask: Item: YVQEKDDGLKRRQQLEEELLRAKI [R6D]
Result: 2.87

Ask: Item: YVQEKRDGLKRRQQLEEELLRSKI [A22S]
Result: 2.16

Ask: Item: YVQEKRDGLKRTQQLEEELLRAKI [R12T]
Result: 2.19

Ask: Item: YVQEKRDGLKERQQLEEELLRAKI [R11E]
Result: 3.22

Ask: Item: YVQEKRDGCKRRQQLEEELLRAKI [L9C]
Result: 2.06

Ask: Item: YVQEKRDGIKRRQQLEEELLRAKI [L9I]
Result: 2.25

Ask: Item: YVQEKRDGLKRRQQLEHELLRAKI [E17H]
Result: 1.84
